- Test system: SNB-75
- measurement description: NCI tumour cell line growth inhibition, 48 h
Active and inactive are the calls of the source. Cut-off read from the data, not from the text of the source: active = GI50 up to about 1.1 µM and inactive = higher.
Returns: one label drawn from active, inactive

Call for entry COCOc1ccc(OC)cc1 : inactive

Cool, now Cc1ccc(S(=O)OCc2c(C)c(C)c(COS(=O)c3ccc(C)cc3)c(C)c2C)cc1 (stereo not given) inactive

Cool, now CCOC(=O)c1cc2cc(C)cc(C(=O)c3ccc([N+](=O)[O-])cc3)c2[nH]1 inactive

Cool, now COc1ccc(NC(=O)C(=O)Cc2ccc([N+](=O)[O-])c([N+](=O)[O-])c2CC(=O)C(=O)Nc2ccc(OC)cc2OC)c(OC)c1 inactive

Cool, now C/C(=N/NC(=S)Nc1ccccc1Cl)c1ccccn1 inactive

Cool, now Cc1cc(Cl)ccc1Nc1sc(C(=O)c2cc3cc(Cl)ccc3o2)c(N)c1C#N inactive

Cool, now N#CC1CCCC2SC(F)(F)C(F)(F)C12 (stereo not given) inactive

Cool, now O=c1oc2ccc([N+](=O)[O-])cc2cc1-c1csc(-c2ccccc2)n1 active

Cool, now CC1(C)C[C@H](O)[C@H](O)[C@]23C(=O)O[C@H](O)[C@H]2C(C=O)=CC[C@@H]13 inactive

Cool, now CC(C)n1c(=O)n(-c2ccccc2)n(C(C)(C)C)c1=O inactive
